Reported values of pKd for individual entries
# Measured On: T1, biotinylated CRH (human and mouse, not fully specified; biotinylated, position not stated)
# T1 construct: also called Biotin-CRH; biotin-labeled CRH
# T1 peptide: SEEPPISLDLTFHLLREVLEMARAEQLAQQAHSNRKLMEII
# Assay Remarks: Octet BLI, biotinylated CRH on SA sensor
Remember the convention: pKd equals -log10 of concentration in molar.

PR006144 (antibody, human IgG1, kappa, V domains shown, PTM-removal variant of PR004290) VH: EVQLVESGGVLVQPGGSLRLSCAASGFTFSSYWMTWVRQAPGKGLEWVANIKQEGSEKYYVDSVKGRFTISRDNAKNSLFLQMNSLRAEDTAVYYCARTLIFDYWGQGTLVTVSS VL: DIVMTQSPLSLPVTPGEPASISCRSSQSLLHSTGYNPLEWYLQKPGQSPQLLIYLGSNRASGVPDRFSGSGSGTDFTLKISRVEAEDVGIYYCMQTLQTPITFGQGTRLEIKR: 10.05

Now take the following binder into account.
Fill blank: measured pKd of the binder PR005657 (antibody, human IgG1, kappa, V domains shown, PTM-removal variant of PR004290) VH: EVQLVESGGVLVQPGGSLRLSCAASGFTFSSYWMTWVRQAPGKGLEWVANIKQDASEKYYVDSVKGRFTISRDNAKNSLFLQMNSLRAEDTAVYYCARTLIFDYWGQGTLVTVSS VL: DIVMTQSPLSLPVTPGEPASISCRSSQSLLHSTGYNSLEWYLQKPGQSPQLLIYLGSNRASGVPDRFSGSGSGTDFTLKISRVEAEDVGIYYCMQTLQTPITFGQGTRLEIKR is ____.
10.04
